Origin of values: patent US12110276B2

biological target: TEAD1 (Homo sapiens (Human)); assay: TR-FRET lipid pocket probe competition assay (Lipid HTRF), TEAD1; assay type: binding; settings: 4 hours pre-incubation; read-out: Lipid HTRF TEAD1 IC50;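 also: His-tagged TEAD1 with biotinylated probe, detected via Europium anti-His and XL665 streptavidin, probe displacement lowers TR-FRET signal, IC50 from four-parameter nonlinear fit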
Sequence (P28347 whole entry, species assumed): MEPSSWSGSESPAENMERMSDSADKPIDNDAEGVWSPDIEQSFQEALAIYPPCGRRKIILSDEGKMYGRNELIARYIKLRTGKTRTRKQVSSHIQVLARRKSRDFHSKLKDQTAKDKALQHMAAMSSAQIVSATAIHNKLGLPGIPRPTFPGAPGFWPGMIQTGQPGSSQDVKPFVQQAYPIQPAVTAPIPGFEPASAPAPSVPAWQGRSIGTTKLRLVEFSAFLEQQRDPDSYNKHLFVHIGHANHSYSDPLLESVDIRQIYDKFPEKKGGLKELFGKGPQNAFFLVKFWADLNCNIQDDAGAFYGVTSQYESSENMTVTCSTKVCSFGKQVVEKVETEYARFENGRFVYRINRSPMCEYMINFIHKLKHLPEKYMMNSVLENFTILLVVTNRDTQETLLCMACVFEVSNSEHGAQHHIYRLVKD
pIC50: −log10 of the molar value.
Recorded measurements of pIC50, one per entry

# compound, pIC50
records = [
    ("C=C(F)C(=O)N1CC(c2nn(-c3ccc(OC(F)(F)F)cc3)c3nccc(N4CC(O)C4)c23)C1", 7.49),
    ("C=CC(=O)NCc1nn(-c2ccc(S(F)(F)(F)(F)F)cc2)c2cccc(CO)c12", 7.77),
    ("C=CC(=O)N(C)Cc1nn(-c2ccc(OC(F)(F)F)cc2)c2ccccc12", 8.17),
    ("O=C(NCc1nn(-c2ccc(OC(F)(F)F)cc2)c2nccc(CO)c12)C1=CCC1", 7.77),
    ("C=CC(=O)NCc1nn(-c2ccc(OC(F)(F)F)cc2)c2nccc(-c3cnn(CCN(C)C)c3)c12", 6.33),
    ("C=CC(=O)NCc1nn(-c2ccc(OC(F)(F)F)cc2)c2nccc(CO)c12", 7.89),
    ("C=C(F)C(=O)N1CC(c2nn(-c3ccc(OC(F)(F)F)cc3)c3nccc(-c4cnn(CCS(C)(=O)=O)c4)c23)C1", 7.49),
    ("C=CC(=O)NCc1nn(-c2ccc(OC(F)(F)F)cc2)c2cccnc12", 7.04),
    ("C=CC(=O)NCc1nn(-c2ccc(OC(F)(F)F)cc2)c2nccc(N3CC(N)C3)c12", 6.96),
    ("O=C(NCc1nn(-c2ccc(OC(F)(F)F)cc2)c2nccc([C@H](O)CO)c12)C1=CCC1", 7.48),
    ("C=CC(=O)NCc1nn(-c2ccc(OC(F)(F)F)cc2)c2nccc(C(C)(C)O)c12", 6.41),
    ("C=C(F)C(=O)N1CC(c2nn(-c3ccc(OC(F)(F)F)cc3Cl)c3nccc(CO)c23)C1", 6.74),
    ("C=CC(=O)NCc1nn(-c2ccc(OC(F)(F)F)cc2)c2nccc([C@@H](C)O)c12", 7.24),
    ("C=C(C)S(=O)(=O)N1CC(c2nn(-c3ccc(OC(F)(F)F)cc3)c3nccc([C@@H](O)CO)c23)C1", 7.12),
    ("C=CC(=O)NCc1nn(-c2ccc(OC(F)(F)F)cc2)c2nccc(NC(=O)CO)c12", 7.73),
    ("C=CC(=O)NCc1nn(-c2ccc(OC(F)(F)F)cc2)c2ncccc12", 8.14),
    ("O=C(/C=C/CO)N1CC(c2nn(-c3ccc(OC(F)(F)F)cc3)c3nccc(N4CC(O)C4)c23)C1", 7.77),
    ("C=CC(=O)NCc1nn(-c2ccc(OC(F)(F)F)cc2)c2nccc(-c3cn[nH]c3)c12", 7.85),
    ("C#Cc1ccnc2c1c(C1CN(C(=O)C=C)C1)nn2-c1ccc(OC(F)(F)F)cc1", 8.46),
    ("C=CC(=O)NCc1nn(-c2ccc(S(F)(F)(F)(F)F)cc2)c2cccc([C@H](O)CO)c12 (single isomer, unassigned)", 7.64),
    ("N#Cc1ccnc2c1c(C1CN(C(=O)/C=C/CO)C1)nn2-c1ccc(OC(F)(F)F)cc1", 7.72),
    ("C=CC(=O)NCc1nn(-c2ccc(OC(F)(F)F)cc2)c2nccc(N3CCC[C@@H](O)C3)c12 (stereo in doubt)", 6.82),
    ("C=C(F)C(=O)N1CC(c2nn(-c3ccc(OC(F)(F)F)cc3)c3nccc(C#N)c23)C1", 7.74),
    ("C=CC(=O)NCc1nn(-c2ccc(OC(F)(F)F)cc2)c2nccc(C(=O)NCCO)c12", 6.02),
    ("C=CC(=O)NCc1nn(-c2ccc(C(F)(F)F)cc2)c2nccc([C@@H](O)CO)c12 (stereo in doubt)", 7.10),
    ("C=C(F)C(=O)N1CC(c2nn(-c3ccc(OC(F)(F)F)cc3)c3nccc(-c4cnn(CC(=O)N(C)C)c4)c23)C1", 7.37),
    ("C=CC(=O)NCc1nn(-c2ccc(OC(F)(F)F)cc2)c2nccc([C@H]3C[C@@H](O)C3)c12", 6.74),
    ("C=CC(=O)NCc1nn(-c2ccc(OC(F)(F)F)cc2)c2nccc(CN3CC(O)C3)c12", 6.31),
    ("C=C(Cl)C(=O)N1CC(c2nn(-c3ccc(OC(F)(F)F)cc3)c3nccc([C@H](O)CO)c23)C1", 7.64),
    ("C=CC(=O)NCc1nn(-c2ccc(C(F)(F)F)cc2)c2nccc([C@H](O)CO)c12 (stereo in doubt)", 6.32),
]

----------
molecular target: TEAD2 (Homo sapiens (Human));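 also: TR-FRET competition assay with His-tagged TEAD protein and a biotinylated lipid pocket probe, compound pre-incubated 30 min or 4 h at room temperature, displacement lowers signal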
Sequence (Q15562 whole entry, species assumed): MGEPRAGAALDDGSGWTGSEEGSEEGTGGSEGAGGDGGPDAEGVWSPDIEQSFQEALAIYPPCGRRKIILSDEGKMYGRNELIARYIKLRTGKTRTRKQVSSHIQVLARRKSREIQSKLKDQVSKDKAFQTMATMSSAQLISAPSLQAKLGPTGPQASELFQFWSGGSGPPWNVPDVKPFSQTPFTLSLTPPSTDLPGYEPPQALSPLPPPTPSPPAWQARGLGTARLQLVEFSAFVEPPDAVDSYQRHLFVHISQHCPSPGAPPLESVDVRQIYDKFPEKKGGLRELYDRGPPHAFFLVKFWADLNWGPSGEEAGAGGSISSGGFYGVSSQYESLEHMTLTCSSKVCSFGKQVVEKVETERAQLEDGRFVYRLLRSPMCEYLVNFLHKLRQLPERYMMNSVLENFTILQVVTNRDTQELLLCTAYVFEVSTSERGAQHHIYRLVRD
pIC50: −log10 of the molar value.
Respond with met for pIC50 values of 7 and above, not met for values below.

# chemical.smiles, group.label
measured = [
    ("C=C(F)C(=O)N1CC(c2nn(-c3ccc(OC(F)(F)F)cc3)c3ccnc(N4CC(O)C4)c23)C1", "not met"),
    ("C=C(C)S(=O)(=O)N1CC(c2nn(-c3ccc(OC(F)(F)F)cc3)c3nccc([C@@H](O)CO)c23)C1", "met"),
    ("C=CC(=O)NCc1nn(-c2ccc(OC(F)(F)F)cc2)c2nccc(N[C@H]3C[C@H](O)C3)c12", "not met"),
    ("O=C(C1=CCC1)N1CC(c2nn(-c3ccc(OC(F)(F)F)cc3)c3nccc([C@H](O)CO)c23)C1", "met"),
    ("CC#CC(=O)N1CC(c2nn(-c3ccc(OC(F)(F)F)cc3)c3nccc([C@H](O)CO)c23)C1", "met"),
]

----------
target: TEAD4 (Homo sapiens (Human), UniProt Q15561); assay: TR-FRET lipid pocket probe competition assay (Lipid HTRF), TEAD4; format: binding; conditions: 4 hours pre-incubation; read-out: Lipid HTRF TEAD4 IC50
Sequence (Q15561 whole entry, species assumed): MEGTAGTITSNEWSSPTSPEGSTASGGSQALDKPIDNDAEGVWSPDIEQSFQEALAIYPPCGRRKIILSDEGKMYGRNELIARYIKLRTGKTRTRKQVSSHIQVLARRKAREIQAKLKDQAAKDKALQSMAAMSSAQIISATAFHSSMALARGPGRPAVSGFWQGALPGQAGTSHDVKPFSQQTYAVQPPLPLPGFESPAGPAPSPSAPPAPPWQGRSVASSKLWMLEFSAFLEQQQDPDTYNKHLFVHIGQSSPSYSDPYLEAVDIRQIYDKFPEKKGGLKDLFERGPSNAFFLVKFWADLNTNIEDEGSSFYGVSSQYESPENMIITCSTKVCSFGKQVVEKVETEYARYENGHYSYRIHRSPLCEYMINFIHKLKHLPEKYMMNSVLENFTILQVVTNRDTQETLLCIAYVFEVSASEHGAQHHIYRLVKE
Recorded measurements of IC50, one per entry

# compound, IC50 [nM]
measured = [
    ("C=CC(=O)NCc1nn(-c2ccc(C(F)(F)F)cc2)c2nccc([C@H](O)CO)c12 (stereo in doubt) [Compound 100]", 100),
    ("C=CC(=O)NCc1nn(-c2ccc(OC(F)(F)F)cc2)c2nccc(-c3cnn(C(C)C)c3)c12 [Compound 170]", 92.8),
    ("C=CC(=O)NCc1nn(-c2ccc(OC(F)(F)F)cc2)c2nccc(N3CC(O)(CO)C3)c12 [Compound 124]", 9.9),
    ("C=CC(=O)NCc1nn(-c2ccc(OC(F)(F)F)cc2)c2nccc(N(C)[C@H]3C[C@@H](O)C3)c12 [Compound 117]", 33),
]

----------
biological target: TEAD4 (Homo sapiens (Human), UniProt Q15561); assay: TR-FRET lipid pocket probe competition assay (Lipid HTRF), TEAD4; assay type: binding; settings: 4 hours pre-incubation; read-out: Lipid HTRF TEAD4 IC50;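 also: His-tagged TEAD4 with biotinylated lipid-pocket probe, read by Europium anti-His and XL665 streptavidin, where probe displacement lowers the TR-FRET signal, IC50 from a four-parameter fit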

# compound, units.symbol, IC50
records = [
    ("C=CC(=O)NCc1nn(-c2ccc(S(F)(F)(F)(F)F)cc2)c2cccnc12 [Compound 12]", "nM", 43),
    ("C=CC(=O)NCc1nn(-c2ccc(OC(F)(F)F)cc2)c2nccc(N3CC[C@H](O)C3)c12 [Compound 46]", "nM", 13),
    ("C[C@H](O)/C=C/C(=O)N1CC(c2nn(-c3ccc(OC(F)(F)F)cc3)c3nccc(CO)c23)C1 [Compound 97]", "nM", 58),
    ("O=C(C#CCO)NCc1nn(-c2ccc(OC(F)(F)F)cc2)c2nccc(CO)c12 [Compound 128]", "nM", 3.6),
    ("C=CC(=O)NCc1nn(-c2ccc(OC(F)(F)F)cc2)c2nccc(CO)c12 [Compound 32]", "nM", 25),
    ("C=C(F)C(=O)NCc1nn(-c2ccc(OC(F)(F)F)cc2)c2nccc([C@H](O)CO)c12 [Compound 155]", "nM", 160),
    ("C=CC(=O)NCc1nn(-c2ccc(OC(F)(F)F)cc2)c2nccc(N3CC(NC(C)=O)C3)c12 [Compound 116]", "nM", 11),
    ("C=C(F)C(=O)N1CC(c2nn(-c3ccc(OC(F)(F)F)cc3)c3nccc(-c4cnn(CCN(C)C)c4)c23)C1 [Compound 45]", "nM", 340),
    ("C=CC(=O)N(C)Cc1nn(-c2ccc(OC(F)(F)F)cc2)c2ccccc12 [Compound 18]", "nM", 3.4),
    ("C=C(F)C(=O)N1CC(c2nn(-c3ccc(OC(F)(F)F)cc3)c3nccc(-c4c[nH]cn4)c23)C1 [Compound 130]", "nM", 540),
    ("O=C(/C=C/Cl)NCc1nn(-c2ccc(OC(F)(F)F)cc2)c2nccc(CO)c12 [Compound 37]", "nM", 3.2),
    ("C=CC(=O)NCc1nn(-c2ccc(OC(F)(F)F)cc2)c2nccc(N[C@H]3C[C@H](O)C3)c12 [Compound 85]", "nM", 170),
    ("C=CC(=O)NCc1nn(-c2ccc(S(F)(F)(F)(F)F)cc2)c2nccc(CO)c12 [Compound 87]", "nM", 33),
    ("O=C(NCc1nn(-c2ccc(OC(F)(F)F)cc2)c2nccc([C@H](O)CO)c12)C1=CCC1 [Compound 156]", "nM", 7.8),
    ("C=CC(=O)NCc1nn(-c2ccc(OC(F)(F)F)cc2)c2nccc([C@H]3C[C@H](O)C3)c12 [Compound 56]", "nM", 11),
    ("C=CC(=O)NCc1nn(-c2ccc(OC(F)(F)F)cc2)c2nccc([C@H](O)CO)c12 [Compound 17]", "nM", 20),
]
